The measurements presented in this section are drawn from patent US20200231684A1.

Target: T1, human IL-36R on cells (human, UniProt Q9HB29 20-575)
T1 sequence (looked up): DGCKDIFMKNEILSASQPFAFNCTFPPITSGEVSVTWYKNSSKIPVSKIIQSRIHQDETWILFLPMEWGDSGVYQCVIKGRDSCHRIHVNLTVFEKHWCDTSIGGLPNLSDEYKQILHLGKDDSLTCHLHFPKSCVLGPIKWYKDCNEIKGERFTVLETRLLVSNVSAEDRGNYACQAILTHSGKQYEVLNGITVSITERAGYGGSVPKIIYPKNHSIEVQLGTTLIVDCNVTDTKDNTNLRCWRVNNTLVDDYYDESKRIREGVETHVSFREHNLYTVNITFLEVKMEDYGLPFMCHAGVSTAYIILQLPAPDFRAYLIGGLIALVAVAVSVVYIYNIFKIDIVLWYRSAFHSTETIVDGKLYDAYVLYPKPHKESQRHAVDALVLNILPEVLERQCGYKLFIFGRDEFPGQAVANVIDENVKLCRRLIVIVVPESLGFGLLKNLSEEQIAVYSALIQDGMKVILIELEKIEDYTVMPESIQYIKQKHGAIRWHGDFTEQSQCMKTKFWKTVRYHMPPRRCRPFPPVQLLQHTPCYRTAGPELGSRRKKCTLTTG
Test: cell-based or functional assay
Measured metric: IC90, pNFκB, NCI/ADR-RES cells, trun-IL-36b (nM)
Respond with the bare value in nM.

Worked cases, IC90, pNFκB, NCI/ADR-RES cells, trun-IL-36b given:
# Binder, Readout value
rows = [
    ("antibody 33D10 (antibody, V domains shown, Mouse monoclonal from hybridoma; also called 33D10B12; Mouse 33D10) VH: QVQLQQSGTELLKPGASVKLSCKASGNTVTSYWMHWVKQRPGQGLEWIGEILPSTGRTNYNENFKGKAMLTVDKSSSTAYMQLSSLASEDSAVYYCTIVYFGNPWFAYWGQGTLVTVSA VL: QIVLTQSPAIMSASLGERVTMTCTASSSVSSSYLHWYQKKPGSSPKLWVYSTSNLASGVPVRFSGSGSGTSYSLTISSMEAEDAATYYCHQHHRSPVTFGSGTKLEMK", 1.3),
    ("antibody 78C8 (antibody, V domains shown, Mouse monoclonal from hybridoma; also called 78C8D1; Mouse 78C8) VH: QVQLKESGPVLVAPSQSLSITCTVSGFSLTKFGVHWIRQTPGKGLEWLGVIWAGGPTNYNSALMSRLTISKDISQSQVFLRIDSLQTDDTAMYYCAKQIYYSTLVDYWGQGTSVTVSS VL: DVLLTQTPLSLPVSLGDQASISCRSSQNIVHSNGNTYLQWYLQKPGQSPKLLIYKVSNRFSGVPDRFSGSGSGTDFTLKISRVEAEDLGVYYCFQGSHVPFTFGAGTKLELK", 6.8),
    ("antibody 73C5 (antibody, V domains shown, Mouse monoclonal from hybridoma; also called 73C5C10; Mouse 73C5) VH: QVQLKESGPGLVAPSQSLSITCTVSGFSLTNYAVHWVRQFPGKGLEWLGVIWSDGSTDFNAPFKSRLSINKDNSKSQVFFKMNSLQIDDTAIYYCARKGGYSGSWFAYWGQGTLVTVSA VL: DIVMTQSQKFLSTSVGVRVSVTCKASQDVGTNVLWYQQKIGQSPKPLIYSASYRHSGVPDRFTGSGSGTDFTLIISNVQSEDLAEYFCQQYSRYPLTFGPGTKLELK", 3.4),
    ("antibody 81B4 (antibody, V domains shown, Mouse monoclonal from hybridoma; also called 81B4E11; Mouse 81B4) VH: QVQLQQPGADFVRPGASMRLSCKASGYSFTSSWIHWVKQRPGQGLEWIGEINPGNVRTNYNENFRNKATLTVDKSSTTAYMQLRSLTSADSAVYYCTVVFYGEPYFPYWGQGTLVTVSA VL: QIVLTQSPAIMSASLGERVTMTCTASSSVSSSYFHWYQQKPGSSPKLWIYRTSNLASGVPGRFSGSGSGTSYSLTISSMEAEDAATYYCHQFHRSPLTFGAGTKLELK", 1.4),
    ("antibody 81A1 (antibody, V domains shown, Mouse monoclonal from hybridoma; also called 81A1D1; Mouse 81A1) VH: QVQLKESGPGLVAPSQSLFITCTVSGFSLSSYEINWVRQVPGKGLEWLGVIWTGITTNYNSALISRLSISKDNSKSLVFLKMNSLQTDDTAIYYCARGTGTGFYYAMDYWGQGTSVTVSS VL: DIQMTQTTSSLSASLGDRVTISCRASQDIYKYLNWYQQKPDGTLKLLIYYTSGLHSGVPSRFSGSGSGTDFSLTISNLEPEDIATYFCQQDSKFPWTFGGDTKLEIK", 4.2),
]

# ---- query binder ----
Entry antibody 73F6 (antibody, V domains shown, Mouse monoclonal from hybridoma; also called 73F6F8; Mouse 73F6) VH: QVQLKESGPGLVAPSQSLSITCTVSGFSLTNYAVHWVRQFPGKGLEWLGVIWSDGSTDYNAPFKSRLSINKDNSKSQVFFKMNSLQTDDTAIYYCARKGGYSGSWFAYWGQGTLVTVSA VL: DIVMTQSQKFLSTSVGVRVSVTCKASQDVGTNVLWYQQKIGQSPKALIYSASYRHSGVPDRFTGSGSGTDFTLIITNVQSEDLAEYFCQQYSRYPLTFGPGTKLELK : reported IC90, pNFκB, NCI/ADR-RES cells, trun-IL-36b = ?
3
